Field: residual activity. Provide a value for each of the compounds that follow.
biological target: Serine/threonine-protein kinase 17A (Homo sapiens) (UniProt Q9UEE5); details: at 10 µM
Sequence (Q9UEE5 whole entry): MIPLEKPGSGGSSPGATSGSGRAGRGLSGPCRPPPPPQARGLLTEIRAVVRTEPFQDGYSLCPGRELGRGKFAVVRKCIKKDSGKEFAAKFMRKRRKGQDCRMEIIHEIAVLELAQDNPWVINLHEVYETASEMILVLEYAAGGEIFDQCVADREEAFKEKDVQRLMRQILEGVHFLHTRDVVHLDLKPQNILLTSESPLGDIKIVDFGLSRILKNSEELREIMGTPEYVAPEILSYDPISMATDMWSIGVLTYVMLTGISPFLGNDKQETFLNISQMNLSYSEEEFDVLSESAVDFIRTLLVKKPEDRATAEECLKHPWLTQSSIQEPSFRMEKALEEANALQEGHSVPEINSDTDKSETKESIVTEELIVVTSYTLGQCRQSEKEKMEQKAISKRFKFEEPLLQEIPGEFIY

{"columns": ["Compound", "Study system", "Meas value"],
 "data": [
  ["COc1cc2ncnc(N3CCN(C(=O)Nc4ccc(Oc5ccccc5)cc4)CC3)c2cc1OC", "Serine/threonine-protein kinase 17A (Homo sapiens) (UniProt Q9UEE5)", "101%"],
  ["Oc1n[nH]c2nnc(-c3c(-c4ccccc4)nn4ccccc34)cc12", "Serine/threonine-protein kinase 17A (Homo sapiens) (UniProt Q9UEE5)", "34%"],
  ["O=C(Nc1cccc(Nc2cc(Nc3cccc(C(F)(F)F)c3)ncn2)c1)C1CC1", "Serine/threonine-protein kinase 17A (Homo sapiens) (UniProt Q9UEE5)", "50%"],
  ["COc1ccc(S(=O)(=O)N(CCO)c2ccccc2CN(C)C/C=C/c2ccc(Cl)cc2)cc1", "Serine/threonine-protein kinase 17A (Homo sapiens) (UniProt Q9UEE5)", "87%"],
  ["O=C1NC(=O)c2c1c1c3ccccc3[nH]c1c1[nH]c3cc(Br)ccc3c21", "Serine/threonine-protein kinase 17A (Homo sapiens) (UniProt Q9UEE5)", "4%"]
]}

For every record below, what is its residual activity?
1. CC[n+]1c(/C=C/N(C)c2ccccc2)n(-c2ccccc2)c2ccc(-c3nc4ccccc4s3)cc21
2. O=C(O)c1ccc2c3c1cccc3c(=O)n1c3ccccc3nc21
3. CCN(CC)CCCCN1c2ccccc2Oc2ccc(Cl)cc21

-- reply
1: 68%; 2: 13%; 3: 138%

For every record below, what is its residual activity?
1. COc1cc2ncnc(Nc3ccc(Oc4ccccc4)cc3)c2cc1OC
2. O=C1Nc2ccccc2/C1=C1/Nc2ccccc2/C1=N\OCCC(O)CO (stereo not drawn)
3. Cc1ccc(S(=O)(=O)/C=C/C#N)cc1
4. Nc1n[nH]c2nnc(-c3c(-c4ccccc4)nn4ccccc34)cc12
5. CN(C)CCCn1cc(C2=C(c3c[nH]c4ccccc34)C(=O)NC2=O)c2ccccc21
6. O=c1cc(-c2cccc3c2Sc2ccccc2S3)oc(N2CCOCC2)c1
7. COc1ccc(OC)c2c(=S)c3ccccc3[nH]c12
8. c1ccc2c(-c3ccncc3)c[nH]c2c1

-- reply
["124%", "3%", "95%", "117%", "46%", "93%", "97%", "60%"]

For every record below, what is its residual activity?
1. Cc1nc(-c2ccccc2)c(-c2ccncc2)o1
2. O=Nc1c(-c2c(O)[nH]c3ccccc23)[nH]c2ccccc12
3. CCOc1cc2ncnc(Nc3cccc(Br)c3)c2cc1OCC
4. CN(C)c1ccc(/C=C2\C(=O)Nc3ccccc32)cc1

-- reply
77%
4%
60%
6%

For every record below, what is its residual activity?
1. O=c1c2ccccc2[nH]c(=S)n1CCN1CCC(=C(c2ccc(F)cc2)c2ccc(F)cc2)CC1
2. CO[C@H]1C[C@@H]2CC[C@@H](C)[C@@](O)(O2)C(=O)C(=O)N2CCCC[C@H]2C(=O)O[C@H]([C@H](C)C[C@@H]2CC[C@@H](O)[C@H](OC)C2)CC(=O)[C@H](C)/C=C(\C)[C@@H](O)[C@@H](OC)C(=O)[C@H](C)C[C@H](C)/C=C/C=C/C=C/1C
3. Cn1cnc2cc3c(Nc4cccc(Br)c4)ncnc3cc21
4. COc1ccc(CNc2nc(N(CCO)CCO)nc3c2ncn3C(C)C)cc1
5. CC#CC(=O)Nc1cc2c(Nc3ccc(F)c(Cl)c3)ncnc2cn1

-- reply
["90%", "149%", "28%", "85%", "105%"]

For every record below, what is its residual activity?
1. CCN(CC)C(=O)c1ccc(Nc2nc(OCC3CCCCC3)c3nc[nH]c3n2)cc1
2. O=[N+]([O-])c1ccc(-c2nc(-c3ccc(F)cc3)c(-c3ccncc3)[nH]2)cc1
3. Ic1cccc(CSc2nnc(-c3ccncc3)o2)c1

-- reply
1. 4%
2. 104%
3. 3%

----------
molecular target: ALK tyrosine kinase receptor (Homo sapiens) (UniProt Q9UM73); settings: at 10 µM
Sequence (Q9UM73 19-1620 limits assumed): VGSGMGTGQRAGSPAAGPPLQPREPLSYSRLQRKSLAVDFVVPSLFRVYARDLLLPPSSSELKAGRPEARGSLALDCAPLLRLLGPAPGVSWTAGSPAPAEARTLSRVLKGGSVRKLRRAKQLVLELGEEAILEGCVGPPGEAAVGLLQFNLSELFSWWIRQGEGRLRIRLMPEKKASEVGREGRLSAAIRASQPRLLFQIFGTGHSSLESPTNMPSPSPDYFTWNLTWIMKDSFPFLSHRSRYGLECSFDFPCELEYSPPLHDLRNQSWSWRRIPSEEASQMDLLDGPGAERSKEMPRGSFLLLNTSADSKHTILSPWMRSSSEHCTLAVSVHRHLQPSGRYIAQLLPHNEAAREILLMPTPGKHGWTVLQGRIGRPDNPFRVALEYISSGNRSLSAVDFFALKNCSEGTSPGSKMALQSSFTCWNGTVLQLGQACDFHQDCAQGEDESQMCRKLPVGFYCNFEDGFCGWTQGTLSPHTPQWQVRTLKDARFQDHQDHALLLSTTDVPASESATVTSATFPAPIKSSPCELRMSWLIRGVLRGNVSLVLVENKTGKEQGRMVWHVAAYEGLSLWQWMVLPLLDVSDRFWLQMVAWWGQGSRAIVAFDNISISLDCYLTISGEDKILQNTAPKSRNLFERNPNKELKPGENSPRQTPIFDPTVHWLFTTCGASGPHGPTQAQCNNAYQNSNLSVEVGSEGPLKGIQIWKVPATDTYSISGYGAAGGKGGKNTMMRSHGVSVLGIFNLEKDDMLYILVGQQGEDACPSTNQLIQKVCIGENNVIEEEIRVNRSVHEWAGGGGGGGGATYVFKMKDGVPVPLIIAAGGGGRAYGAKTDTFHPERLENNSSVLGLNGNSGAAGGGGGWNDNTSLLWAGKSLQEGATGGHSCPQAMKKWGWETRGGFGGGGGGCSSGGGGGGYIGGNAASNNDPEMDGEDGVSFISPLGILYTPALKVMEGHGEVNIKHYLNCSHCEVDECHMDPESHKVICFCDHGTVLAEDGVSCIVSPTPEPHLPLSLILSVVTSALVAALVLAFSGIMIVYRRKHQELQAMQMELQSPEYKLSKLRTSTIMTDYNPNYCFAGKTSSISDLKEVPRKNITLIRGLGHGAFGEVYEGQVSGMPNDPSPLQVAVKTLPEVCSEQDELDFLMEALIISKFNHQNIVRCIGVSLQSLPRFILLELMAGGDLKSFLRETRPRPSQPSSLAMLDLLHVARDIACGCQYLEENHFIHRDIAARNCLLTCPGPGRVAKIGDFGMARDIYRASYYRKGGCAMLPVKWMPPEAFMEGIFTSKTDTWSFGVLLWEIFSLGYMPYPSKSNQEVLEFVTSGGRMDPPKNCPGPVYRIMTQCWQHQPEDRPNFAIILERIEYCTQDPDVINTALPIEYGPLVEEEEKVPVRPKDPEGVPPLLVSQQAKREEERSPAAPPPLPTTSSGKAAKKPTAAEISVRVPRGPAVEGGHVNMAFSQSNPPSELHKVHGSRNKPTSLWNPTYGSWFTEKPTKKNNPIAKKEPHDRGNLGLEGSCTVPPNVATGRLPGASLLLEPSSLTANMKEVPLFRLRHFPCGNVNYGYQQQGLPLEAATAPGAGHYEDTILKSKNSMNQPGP
Measured quantity: residual activity (%)
One number for each entry, in %.

{"columns": ["Compound structure", "residual activity, %"],
 "data": [
  ["O=C(O)c1ccc2c3c1cccc3c(=O)n1c3ccccc3nc21", 49],
  ["CO[C@H]1C[C@@H]2CC[C@@H](C)[C@@](O)(O2)C(=O)C(=O)N2CCCC[C@H]2C(=O)O[C@H]([C@H](C)C[C@@H]2CC[C@@H](O)[C@H](OC)C2)CC(=O)[C@H](C)/C=C(\\C)[C@@H](O)[C@@H](OC)C(=O)[C@H](C)C[C@H](C)/C=C/C=C/C=C/1C", 32]
]}

Now let's try a different one.
-- ask Identify the measured residual activity of N#Cc1cnc2cnc(NCc3cccnc3)cc2c1Nc1ccc(F)c(Cl)c1 for ALK tyrosine kinase receptor (Homo sapiens) (UniProt Q9UM73).
-- reply 75

----------
molecular target: Mitogen-activated protein kinase 8 (Homo sapiens); details: at 10 µM
Description: Millipore: Percentage of residual kinase activity of MAPK8 at 10uM relative to control. Control inhibitor: Jnk Inhibitor II at 100.0uM. Buffer: 50 mM Tris pH 7.5, 0.1 mM EGTA, 0.1% ? -mercaptoethanol
Measured quantity: residual activity (%)
Answers are plain numbers, in %.

For every record below, what is its residual activity?
1. O=C1NC(=O)/C(=C\c2ccc3nccnc3c2)S1
2. Cc1nc(-c2ccccc2)c(-c2ccncc2)o1
3. CC#CC(=O)Nc1cc2c(Nc3ccc(F)c(Cl)c3)ncnc2cn1
4. O=C1c2ccccc2-[n+]2ccc3c([nH]c4ccccc43)c21
5. CO[C@H]1C[C@@H]2CC[C@@H](C)[C@@](O)(O2)C(=O)C(=O)N2CCCC[C@H]2C(=O)O[C@H]([C@H](C)C[C@@H]2CC[C@@H](O)[C@H](OC)C2)CC(=O)[C@H](C)/C=C(\C)[C@@H](O)[C@@H](OC)C(=O)[C@H](C)C[C@H](C)/C=C/C=C/C=C/1C

-- reply
[87, 94, 72, 87, 90]

For every record below, what is its residual activity?
1. Oc1ccc(-c2nc(-c3ccc(F)cc3)c(-c3ccncc3)[nH]2)cc1
2. N#C/C(=C(\N)Sc1ccc(N)cc1)c1ccccc1C(F)(F)F

-- reply
79
100

For every record below, what is its residual activity?
1. Cc1cc(Nc2nc(-c3ccccc3)nc3ccccc23)n[nH]1
2. O=C1Nc2ccc(Br)cc2/C1=C\c1cc2c([nH]1)CCCC2

-- reply
[71, 114]

----------
target: cAMP-dependent protein kinase catalytic subunit alpha (Homo sapiens); conditions: at 10 µM
Measured quantity: residual activity

{"columns": ["Compound structure", "Meas value"],
 "data": [
  ["Nc1nc(Nc2ccc(S(N)(=O)=O)cc2)nn1C(=S)Nc1c(F)cccc1F", "16%"],
  ["Nc1cccc(-c2cc3c(Oc4cccc(O)c4)ncnc3[nH]2)c1", "85%"],
  ["Cn1cc(/C=C2\\C(=O)Nc3ccc(S(N)(=O)=O)cc32)c2ccccc21", "57%"],
  ["CO[C@H]1[C@@H](OC)C[C@H](C)[C@@H](OC)C2=CC(=O)C=C(NC(=O)/C(C)=C/C=C/[C@H](OC)[C@@H](OC(N)=O)/C(C)=C/[C@@H]1C)C2=O", "70%"],
  ["CN(C)c1ccc(/C=C2\\C(=O)Nc3ccccc32)cc1", "86%"],
  ["CCN(CC)CCCCN1c2ccccc2Oc2ccc(Cl)cc21", "147%"],
  ["CO[C@@H]1[C@H](N(C)C(=O)c2ccccc2)C[C@H]2O[C@]1(C)n1c3ccccc3c3c4c(c5c6ccccc6n2c5c31)C(=O)NC4", "10%"],
  ["CCN(CC)C(=O)c1ccc(Nc2nc(OCC3CCCCC3)c3nc[nH]c3n2)cc1", "52%"]
]}

For every record below, what is its residual activity?
1. COc1cc2ncnc(Nc3ccc(O)c(Br)c3)c2cc1OC
2. CCC(=O)Nc1ccc2ncnc(Nc3cccc(Br)c3)c2c1
3. Cc1ccc(NC2=CC(=O)c3sc(C)nc3C2=O)cc1
4. Ic1cccc(CSc2nnc(-c3ccncc3)o2)c1
5. O=C(O)c1ccc2c3c1cccc3c(=O)n1c3ccccc3nc21
6. O=C(Nc1cccc(Nc2nccc(Nc3cccc(C(F)(F)F)c3)n2)c1)C1CC1

-- reply
90%
102%
106%
79%
89%
106%

----------
target: Serine/threonine-protein kinase Nek6 (Homo sapiens); conditions: at 1 µM
Description: Millipore: Percentage of residual kinase activity of NEK6 at 1uM relative to control. Control inhibitor: Phosphoric acid* at 0.3uM. Buffer: 8 mM MOPS pH 7.0, 0.2 mM EDTA
Field: residual activity. Provide a value for each of the compounds that follow.
Answers are plain numbers, in %.

As a guide, the following entries are already answered.
{"columns": ["Compound", "Meas value"],
 "data": [
  ["Cn1cc(/C=C2\\C(=O)Nc3ccc(S(N)(=O)=O)cc32)c2ccccc21", 100],
  ["Cn1cnc2cc3c(Nc4cccc(Br)c4)ncnc3cc21", 104],
  ["CCC(=O)Nc1ccc2ncnc(Nc3cccc(Br)c3)c2c1", 79],
  ["O=c1cc(-c2cccc3c2Sc2ccccc2S3)oc(N2CCOCC2)c1", 108],
  ["CNc1cc2c(Nc3cccc(Br)c3)ncnc2cn1", 94]
]}

For every record below, what is its residual activity?
1. CC[n+]1c(/C=C/N(C)c2ccccc2)n(-c2ccccc2)c2ccc(-c3nc4ccccc4s3)cc21
2. CC(=O)O/N=C1\C(=C2\C(=O)Nc3cc(Br)ccc32)Nc2ccccc21
3. Nc1nc(Nc2ccc(S(N)(=O)=O)cc2)nn1C(=S)Nc1c(F)cccc1F
4. CC#CC(=O)Nc1cc2c(Nc3ccc(F)c(Cl)c3)ncnc2cn1
5. O=Nc1c(-c2c(O)[nH]c3ccccc23)[nH]c2ccccc12
6. O=C1NC(=O)c2c1c1c3ccccc3[nH]c1c1[nH]c3cc(Br)ccc3c21
7. O=C(O)c1ccc2c3c1cccc3c(=O)n1c3ccccc3nc21
8. CO[C@H]1[C@@H](OC)C[C@H](C)[C@@H](OC)C2=CC(=O)C=C(NC(=O)/C(C)=C/C=C/[C@H](OC)[C@@H](OC(N)=O)/C(C)=C/[C@@H]1C)C2=O

-- reply
[108, 108, 89, 82, 91, 121, 109, 103]

For every record below, what is its residual activity?
1. CC(C)n1cnc2c(NCc3ccccc3)nc(NCCCO)nc21
2. COc1ccc(S(=O)(=O)N(CCO)c2ccccc2CN(C)C/C=C/c2ccc(Cl)cc2)cc1
3. Cc1ccc(S(=O)(=O)/C=C/C#N)cc1
4. COc1cc2ncc(-c3ccccc3)nc2cc1OC
5. Oc1ccc(Nc2nc(-c3ccc(Cl)cc3)cs2)cc1

-- reply
107
110
99
80
116

For every record below, what is its residual activity?
1. O=c1c2ccccc2[nH]c(=S)n1CCN1CCC(=C(c2ccc(F)cc2)c2ccc(F)cc2)CC1
2. Cc1nc2cc3nc(-c4cccs4)cnc3cc2n1C
3. COc1cc2ncnc(Nc3ccc(O)c(Br)c3)c2cc1OC
4. O=C1Nc2cc(Br)ccc2/C1=C1/Nc2ccccc2/C1=N\O
5. O=C1Nc2ccccc2/C1=C1/Nc2ccccc2/C1=N\OCCC(O)CO (stereo not drawn)

-- reply
1. 99
2. 104
3. 86
4. 108
5. 113
